Reported TGI values are given for each entry in this list.
Tested on: 786-0 renal
Protocol: NCI tumour cell line growth inhibition, 48 h

Previously resolved entries follow.
// returns reported TGI for input NC1CCC(Nc2nc(NCc3ccc(-c4ccco4)nc3)c3ncn(C4CCCC4)c3n2)CC1 (stereo unspecified) 1.8 µM

GET /values?readout=TGI&item= CC(C)c1ccc(C(C)C(=O)N(CC2=C(C(C)c3ccccn3)c3ccccc3C2)C(C)C)cc1 (stereo unspecified) 11.5 µM

Can you look up the measured TGI of C=CC[C@H]1O[Si](C(C)(C)C)(C(C)(C)C)[C@H](C)[C@H]1C for me? > 100 µM

What does the data say about its TGI? Entry: COc1cc(NC(C)c2ccc3c(c2)OCCO3)cc(OC)c1OC (stereo unspecified) > 100 µM

Could you share which TGI value was measured for O=C(O)c1cc(C(=O)O)cc(N2C(=O)c3ccccc3C2=O)c1 ? > 100 µM

Can you share its TGI? I mean this compound: O=C1NC(N/N=C/C(O)C(O)C(O)C(O)CO)=N/C1=C\c1ccco1 (stereo unspecified) > 100 µM

Next:
Form field: reported TGI of CC(=O)OC1COC(n2c(=S)n(-c3ccc(C)cc3)c(=O)c3ccccc32)C(OC(C)=O)C1OC(C)=O (stereo unspecified) > 100 µM
